Cited source for all entries: patent US20060058231A1

Target: T1, ActRIIa receptor-Fc fusion (UniProt P27037 20-134, limits assumed)
T1 construct: BMP receptor-Fc fusion, detected with anti-human IgG-HRP
T1 sequence (P27037 20-134 limits assumed): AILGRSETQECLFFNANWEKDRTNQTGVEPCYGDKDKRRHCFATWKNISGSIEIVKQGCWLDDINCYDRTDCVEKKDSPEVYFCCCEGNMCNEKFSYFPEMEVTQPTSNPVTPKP
Assay: ELISA-like, fixed volume of conditioned media, receptor-Fc
ActRIIa binding relative to wild type by entry:

| Binder | ActRIIa binding relative to wild type |
| --- | --- |
| BMP-7 variant S77P (ligand) STGGKQRSQNRSKTPKNQEALRMASVAENSSSDQRQACKKHELYVSFRDLGWQDWIIAPEGYAAYYCEGECAFPLNPYMNATNHAIVQTLVHFINPETVPKPCCAPTQLNAISVLYFDDSSNVILKKYRNMVVRACGCH | 0.92 relative to wt = 1.0 |
| BMP-7 variant Q53A (ligand) STGGKQRSQNRSKTPKNQEALRMASVAENSSSDQRQACKKHELYVSFRDLGWADWIIAPEGYAAYYCEGECAFPLNSYMNATNHAIVQTLVHFINPETVPKPCCAPTQLNAISVLYFDDSSNVILKKYRNMVVRACGCH | 0.84 relative to wt = 1.0 |
| BMP-7 variant K39T (ligand) STGGKQRSQNRSKTPKNQEALRMASVAENSSSDQRQACTKHELYVSFRDLGWQDWIIAPEGYAAYYCEGECAFPLNSYMNATNHAIVQTLVHFINPETVPKPCCAPTQLNAISVLYFDDSSNVILKKYRNMVVRACGCH | 0.98 relative to wt = 1.0 |

# query: ActRIIa binding relative to wild type of entry BMP-7 variant R134L (ligand) STGGKQRSQNRSKTPKNQEALRMASVAENSSSDQRQACKKHELYVSFRDLGWQDWIIAPEGYAAYYCEGECAFPLNSYMNATNHAIVQTLVHFINPETVPKPCCAPTQLNAISVLYFDDSSNVILKKYRNMVVLACGCH 0.99 relative to wt = 1.0

Also check BMP-7 variant K126G (ligand) STGGKQRSQNRSKTPKNQEALRMASVAENSSSDQRQACKKHELYVSFRDLGWQDWIIAPEGYAAYYCEGECAFPLNSYMNATNHAIVQTLVHFINPETVPKPCCAPTQLNAISVLYFDDSSNVILGKYRNMVVRACGCH 0.53 relative to wt = 1.0

Also check BMP-7 variant S77T (ligand) STGGKQRSQNRSKTPKNQEALRMASVAENSSSDQRQACKKHELYVSFRDLGWQDWIIAPEGYAAYYCEGECAFPLNTYMNATNHAIVQTLVHFINPETVPKPCCAPTQLNAISVLYFDDSSNVILKKYRNMVVRACGCH 0.99 relative to wt = 1.0

Also check BMP-7 variant K39D (ligand) STGGKQRSQNRSKTPKNQEALRMASVAENSSSDQRQACDKHELYVSFRDLGWQDWIIAPEGYAAYYCEGECAFPLNSYMNATNHAIVQTLVHFINPETVPKPCCAPTQLNAISVLYFDDSSNVILKKYRNMVVRACGCH 0.88 relative to wt = 1.0
